tested on: GT2a wild-type replicon; experiment: microbe, parasite or virus in culture; assay type: cell-based, HCV; conditions: Hepatitis C virus, 72 h, 3 days
Entries annotated with measured EC50
Provide the reading as a plain figure in nM.

Query: // fetch EC50 given entry "COC(=O)N[C@H](C(=O)N1CC2(CC2)C[C@H]1c1ncc(-c2ccc3c(c2)C(F)(F)c2cc(-c4ccc5nc([C@@H]6[C@H]7CC[C@H](C7)N6C(=O)[C@@H](NC(=O)OC)C(C)C)[nH]c5c4)ccc2-3)[nH]1)C(C)C"
Response: 5160

Query: Consider the compound "CC(C)OC(=O)[C@H](C)N[P@](=O)(OC[C@H]1O[C@@H](n2ccc(=O)[nH]c2=O)[C@](C)(F)[C@@H]1O)Oc1ccccc1" . State its measured EC50.
Response: 147

Query: Please report the measured EC50 for NC(=O)c1ncn([C@@H]2O[C@H](CO)[C@@H](O)[C@H]2O)n1 [Ribavirin, reference compound]
Response: 8.3
